Reference for the values: patent US20170342144A1

Hi there, I'd appreciate the recorded kd var/kd wt for every entry that follows.
- system under test: T1, human TGFβ3 (human, UniProt P10600 301-412)
- T1 sequence: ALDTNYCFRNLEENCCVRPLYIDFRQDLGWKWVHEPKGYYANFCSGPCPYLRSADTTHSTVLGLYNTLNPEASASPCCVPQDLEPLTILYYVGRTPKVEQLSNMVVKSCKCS
- assay overview: Biacore off-rate vs wt GC1008, 50 nM
Write no unit; give the number alone.

Read off the recorded kd var/kd wt for N32S (antibody, V domains shown, GC1008 IgG4 variant) VH: QVQLVQSGAEVKKPGSSVKVSCKASGYTFSSSVISWVRQAPGQGLEWMGGVIPIVDIANYAQRFKGRVTITADESTSTTYMELSSLRSEDTAVYYCASTLGLVLDAMDYWGQGTLVTVSS VL: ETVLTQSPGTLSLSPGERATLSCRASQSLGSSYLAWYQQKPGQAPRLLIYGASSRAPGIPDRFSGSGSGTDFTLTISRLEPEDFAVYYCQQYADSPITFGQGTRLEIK
1.2

Read off the recorded kd var/kd wt for V55I (antibody, V domains shown, GC1008 IgG4 variant) VH: QVQLVQSGAEVKKPGSSVKVSCKASGYTFSSNVISWVRQAPGQGLEWMGGVIPIIDIANYAQRFKGRVTITADESTSTTYMELSSLRSEDTAVYYCASTLGLVLDAMDYWGQGTLVTVSS VL: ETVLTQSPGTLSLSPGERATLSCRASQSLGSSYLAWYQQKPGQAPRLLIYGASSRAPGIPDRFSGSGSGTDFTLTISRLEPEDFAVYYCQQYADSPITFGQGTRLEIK
1.8

Read off the recorded kd var/kd wt for S30T (antibody, V domains shown, GC1008 IgG4 variant) VH: QVQLVQSGAEVKKPGSSVKVSCKASGYTFTSNVISWVRQAPGQGLEWMGGVIPIVDIANYAQRFKGRVTITADESTSTTYMELSSLRSEDTAVYYCASTLGLVLDAMDYWGQGTLVTVSS VL: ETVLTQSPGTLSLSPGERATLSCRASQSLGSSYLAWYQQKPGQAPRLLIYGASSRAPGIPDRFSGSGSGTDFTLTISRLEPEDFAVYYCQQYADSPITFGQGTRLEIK
1.1
